Where these numbers come from: ChEMBL document CHEMBL3044740

Tested on: Escherichia coli
Run Description: Antibacterial activity against Escherichia coli MTCC 739 at 100 ug/ml by cup-plate method
Type: functional
Recorded Conditions: read-out: DIZ
Each entry below lists one item and its recorded zone of inhibition at 100 µg/mL value.
# number then unit; no other words

Some solved cases for reference:
>>> observed_result("COc1cc(/C=C2\\S/C(=N/c3ccc([N+](=O)[O-])cc3)NC2=O)ccc1O")
"12 mm"
>>> observed_result("O=C1N/C(=N\\c2ccccc2[N+](=O)[O-])S/C1=C\\c1ccccc1")
"8 mm"
>>> observed_result("O=C1N/C(=N\\c2ccccc2[N+](=O)[O-])S/C1=C\\c1cccc([N+](=O)[O-])c1")
"8 mm"
>>> observed_result("O=C1N/C(=N\\c2ccc([N+](=O)[O-])cc2)S/C1=C\\c1ccccc1Cl")
"14 mm"
>>> observed_result("O=C1N/C(=N\\c2ccccc2[N+](=O)[O-])S/C1=C\\c1ccc(Cl)cc1")
"11 mm"

Exam item: In one line, give reported zone of inhibition at 100 µg/mL of the entry O=C1N/C(=N\c2ccccc2[N+](=O)[O-])S/C1=C\c1ccccc1Cl .
Marked response: 10 mm

Exam item: In one line, give reported zone of inhibition at 100 µg/mL of the entry O=C1N/C(=N\c2ccc([N+](=O)[O-])cc2)S/C1=C\c1ccccc1[N+](=O)[O-] .
Marked response: 11 mm

Exam item: In one line, give reported zone of inhibition at 100 µg/mL of the entry O=C1N/C(=N\c2ccc([N+](=O)[O-])cc2)S/C1=C\c1cccc([N+](=O)[O-])c1 .
Marked response: 11 mm

Exam item: In one line, give reported zone of inhibition at 100 µg/mL of the entry O=C(O)c1cn(C2CC2)c2cc(N3CCNCC3)c(F)cc2c1=O .
Marked response: 28 mm

Exam item: In one line, give reported zone of inhibition at 100 µg/mL of the entry O=C1N/C(=N\c2ccc([N+](=O)[O-])cc2)S/C1=C\c1ccccc1 .
Marked response: 12 mm

Exam item: In one line, give reported zone of inhibition at 100 µg/mL of the entry O=C1N/C(=N\c2ccc([N+](=O)[O-])cc2)S/C1=C\c1ccc(Cl)cc1 .
Marked response: 16 mm

Exam item: In one line, give reported zone of inhibition at 100 µg/mL of the entry O=C1N/C(=N\c2ccc([N+](=O)[O-])cc2)S/C1=C\c1ccc(O)cc1 .
Marked response: 12 mm

Exam item: In one line, give reported zone of inhibition at 100 µg/mL of the entry O=C1N/C(=N\c2ccccc2[N+](=O)[O-])S/C1=C\c1ccccc1[N+](=O)[O-] .
Marked response: 8 mm

* * *

Each entry below lists one item and its recorded zone of inhibition at 200 µg/mL value.
Tested on: Pseudomonas aeruginosa
Run Description: Antibacterial activity against Pseudomonas aeruginosa MTCC 2453 at 200 ug/ml by cup-plate method
Type: functional
Recorded Conditions: read-out: DIZ
Write down the numeric answer in mm and omit the unit.

Exam item: Give zone of inhibition at 200 µg/mL; test system Pseudomonas aeruginosa; molecule O=C1N/C(=N\c2ccc([N+](=O)[O-])cc2)S/C1=C\c1ccc(O)cc1
Marked response: 11

Exam item: Give zone of inhibition at 200 µg/mL; test system Pseudomonas aeruginosa; molecule O=C1N/C(=N\c2ccccc2[N+](=O)[O-])S/C1=C\c1ccccc1Cl
Marked response: 12

Exam item: Give zone of inhibition at 200 µg/mL; test system Pseudomonas aeruginosa; molecule O=C1N/C(=N\c2ccc([N+](=O)[O-])cc2)S/C1=C\c1ccccc1
Marked response: 11

Exam item: Give zone of inhibition at 200 µg/mL; test system Pseudomonas aeruginosa; molecule O=C1N/C(=N\c2ccc([N+](=O)[O-])cc2)S/C1=C\c1cccc([N+](=O)[O-])c1
Marked response: 12

* * *

System: Bacillus subtilis
Run Description: Antibacterial activity against Bacillus subtilis MTCC 121 at 100 ug/ml by cup plate method
Assay type: functional
Recorded Conditions: read-out: DIZ
Each entry below lists one item and its recorded zone of inhibition at 100 µg/mL value.
Write down the numeric answer in mm and omit the unit.

Some solved cases for reference:
>>> observed_result("O=C1N/C(=N\\c2ccccc2[N+](=O)[O-])S/C1=C\\c1ccc(Cl)cc1")
14
>>> observed_result("O=C(O)c1cn(C2CC2)c2cc(N3CCNCC3)c(F)cc2c1=O [CIPROFLOXACIN]")
22
>>> observed_result("COc1cc(/C=C2\\S/C(=N/c3ccccc3[N+](=O)[O-])NC2=O)ccc1O")
8
>>> observed_result("O=C1N/C(=N\\c2ccccc2[N+](=O)[O-])S/C1=C\\c1ccccc1Cl")
13
>>> observed_result("O=C1N/C(=N\\c2ccc([N+](=O)[O-])cc2)S/C1=C\\c1ccc(O)cc1")
12

Exam item: In one line, give reported zone of inhibition at 100 µg/mL of the entry O=C1N/C(=N\c2ccccc2[N+](=O)[O-])S/C1=C\c1ccccc1 .
Marked response: 10

Exam item: In one line, give reported zone of inhibition at 100 µg/mL of the entry O=C1N/C(=N\c2ccc([N+](=O)[O-])cc2)S/C1=C\c1ccccc1Cl .
Marked response: 14

* * *

System: Staphylococcus aureus
Run Description: Antibacterial activity against Staphylococcus aureus MTCC 96 at 300 ug/ml by cup-plate method
Format: functional
Recorded Conditions: read-out: DIZ
Each entry below lists one item and its recorded zone of inhibition at 300 µg/mL value.
Write down the numeric answer in mm and omit the unit.

>>> observed_result("O=C1N/C(=N\\c2ccccc2[N+](=O)[O-])S/C1=C\\c1ccc(Cl)cc1")
18
>>> observed_result("O=C1N/C(=N\\c2ccc([N+](=O)[O-])cc2)S/C1=C\\c1ccccc1[N+](=O)[O-]")
17
>>> observed_result("COc1cc(/C=C2\\S/C(=N/c3ccccc3[N+](=O)[O-])NC2=O)ccc1O")
8
>>> observed_result("O=C1N/C(=N\\c2ccc([N+](=O)[O-])cc2)S/C1=C\\c1ccc(Cl)cc1")
17
>>> observed_result("O=C1N/C(=N\\c2ccc([N+](=O)[O-])cc2)S/C1=C\\c1ccc(O)cc1")
15

Exam item: In one line, give reported zone of inhibition at 300 µg/mL of the entry O=C1N/C(=N\c2ccccc2[N+](=O)[O-])S/C1=C\c1ccccc1Cl .
Marked response: 15

Exam item: In one line, give reported zone of inhibition at 300 µg/mL of the entry O=C1N/C(=N\c2ccc([N+](=O)[O-])cc2)S/C1=C\c1cccc([N+](=O)[O-])c1 .
Marked response: 17

* * *

System: Staphylococcus aureus
Run Description: Antibacterial activity against Staphylococcus aureus MTCC 96 at 300 ug/ml by cup-plate method
Format: functional
Recorded Conditions: read-out: DIZ
Reported Endpoint: zone of inhibition at 300 µg/mL (mm)
Write down the numeric answer in mm and omit the unit.

Some solved cases for reference:
>>> observed_result("O=C1N/C(=N\\c2ccccc2[N+](=O)[O-])S/C1=C\\c1ccccc1")
15
>>> observed_result("O=C1N/C(=N\\c2ccccc2[N+](=O)[O-])S/C1=C\\c1ccc(O)cc1")
11

Next item in the queue.
Exam item: Give zone of inhibition at 300 µg/mL; test system Staphylococcus aureus; compound O=C1N/C(=N\c2ccccc2[N+](=O)[O-])S/C1=C\c1cccc([N+](=O)[O-])c1
Marked response: 16
